Assay System: HLA-A1101 (Homo sapiens, UniProt P04439, A114D/D185E/E176A/F33Y/L180Q/S129P/T187R)
Test Details: cell-based
Residues, ends and D or L forms follow the SMILES beside them.
Result Type: IC50

Example entries and their recorded answers appear below.
CC(C)C[C@H](NC(=O)[C@H](CO)NC(=O)[C@H](Cc1ccccc1)NC(=O)[C@H](Cc1ccccc1)NC(=O)CNC(=O)[C@H](C)NC(=O)[C@@H](N)CCC(N)=O)C(=O)N[C@H](C(=O)N[C@@H](CCCCN)C(=O)O)[C@@H](C)O [Epitope P40] (H-QAGFFSLTK-OH; N-terminus and C-terminus assumed)	< 5 µM
CC(C)C[C@H](NC(=O)[C@H](Cc1ccc(O)cc1)NC(=O)[C@H](CCCCN)NC(=O)[C@@H](NC(=O)[C@@H](NC(=O)[C@H](CCCCN)NC(=O)[C@@H]1CCCN1C(=O)[C@H](Cc1ccc(O)cc1)NC(=O)[C@@H](N)Cc1ccccc1)C(C)C)[C@@H](C)O)C(=O)O [Epitope P25] (H-FYPKVTKYL-OH; N-terminus and C-terminus assumed)	> 15 µM
CC(C)C[C@H](NC(=O)[C@H](CCC(=O)O)NC(=O)[C@H](CCC(=O)O)NC(=O)[C@H](Cc1c[nH]c2ccccc12)NC(=O)[C@H](CC(=O)O)NC(=O)[C@H](CCCCN)NC(=O)[C@H](Cc1ccccc1)NC(=O)[C@H](CC(C)C)NC(=O)[C@@H](N)CS)C(=O)O [Epitope P12] (H-CLFKDWEEL-OH; N-terminus and C-terminus assumed)	> 15 µM
CC[C@H](C)[C@H](NC(=O)[C@H](C)NC(=O)[C@@H](N)CO)C(=O)N[C@@H](CO)C(=O)N[C@@H](CO)C(=O)N[C@H](C(=O)N[C@@H](CO)C(=O)N[C@@H](CO)C(=O)N[C@@H](CCCCN)C(=O)O)[C@@H](C)CC [Epitope P39] (H-SAISSISSK-OH; N-terminus and C-terminus assumed)	< 5 µM
CC(C)C[C@H](NC(=O)[C@H](CO)NC(=O)[C@H](Cc1ccccc1)NC(=O)[C@H](Cc1ccccc1)NC(=O)CNC(=O)[C@H](C)NC(=O)[C@H](CCC(N)=O)NC(=O)[C@@H](N)CC(C)C)C(=O)N[C@H](C(=O)N[C@@H](CCCCN)C(=O)O)[C@@H](C)O [Epitope P103] (H-LQAGFFSLTK-OH; N-terminus and C-terminus assumed)	< 5 µM
CC(C)C[C@H](NC(=O)[C@H](Cc1ccccc1)NC(=O)[C@H](Cc1ccccc1)NC(=O)CNC(=O)[C@H](C)NC(=O)[C@@H](N)CCC(N)=O)C(=O)N[C@@H](CC(C)C)C(=O)N[C@H](C(=O)N[C@@H](CCCNC(=N)N)C(=O)O)[C@@H](C)O [Epitope P41] (H-QAGFFLLTR-OH; N-terminus and C-terminus assumed)	> 15 µM
CC[C@H](C)[C@H](NC(=O)[C@H](Cc1c[nH]c2ccccc12)NC(=O)[C@@H](NC(=O)CNC(=O)[C@H](Cc1ccccc1)NC(=O)[C@H](CO)NC(=O)[C@@H](NC(=O)[C@H](CC(C)C)NC(=O)[C@@H](N)Cc1ccc(O)cc1)C(C)C)C(C)C)C(=O)O [Epitope P11]	> 15 µM
CC(C)C[C@H](NC(=O)[C@@H](NC(=O)[C@H](CCC(N)=O)NC(=O)[C@H](Cc1c[nH]cn1)NC(=O)[C@H](C)NC(=O)[C@H](CC(N)=O)NC(=O)[C@@H](NC(=O)[C@@H](N)[C@@H](C)O)C(C)C)C(C)C)C(=O)N1CCC[C@H]1C(=O)N[C@@H](CCCCN)C(=O)O [Epitope P48] (H-TVNAHQVLPK-OH; N-terminus and C-terminus assumed)	< 5 µM

// sample CC(C)C[C@H](NC(=O)[C@@H]1CCCN1C(=O)[C@H](CC(C)C)NC(=O)[C@H](Cc1ccc(O)cc1)NC(=O)[C@H](CCCCN)NC(=O)[C@@H](NC(=O)[C@@H](NC(=O)[C@@H](N)CCCCN)C(C)C)[C@@H](C)O)C(=O)N[C@@H](CC(=O)O)C(=O)N[C@@H](CCCCN)C(=O)O [Epitope P15] (H-KVTKYLPLDK-OH; N-terminus and C-terminus assumed) , its IC50 was < 5 µM

// sample CC(C)C[C@H](NC(=O)[C@H](CC(N)=O)NC(=O)CNC(=O)[C@H](Cc1c[nH]cn1)NC(=O)[C@H](C)NC(=O)[C@H](CC(N)=O)NC(=O)[C@@H](NC(=O)[C@@H](N)[C@@H](C)O)C(C)C)C(=O)N1CCC[C@H]1C(=O)N[C@@H](CCCCN)C(=O)O [Epitope P47] (H-TVNAHGNLPK-OH; N-terminus and C-terminus assumed) , its IC50 was < 5 µM

// sample CSCC[C@H](NC(=O)[C@H](CC(N)=O)NC(=O)[C@@H](NC(=O)[C@H](CC(N)=O)NC(=O)[C@@H](NC(=O)[C@H](Cc1ccc(O)cc1)NC(=O)[C@@H](N)CO)C(C)C)[C@@H](C)O)C(=O)NCC(=O)N[C@@H](CC(C)C)C(=O)O [Epitope P22] (H-SYVNTNMGL-OH; N-terminus and C-terminus assumed) , its IC50 was > 15 µM

// sample CC(C)C[C@H](NC(=O)[C@H](Cc1ccc(O)cc1)NC(=O)[C@H](CCC(=O)O)NC(=O)[C@H](CC(C)C)NC(=O)[C@@H](NC(=O)[C@@H](NC(=O)[C@@H](N)CCC(=O)O)[C@@H](C)O)C(C)C)C(=O)N[C@H](C(=O)N[C@@H](CO)C(=O)N[C@H](C(=O)O)C(C)C)C(C)C [Epitope P118] (H-ETVLEYLVSV-OH; N-terminus and C-terminus assumed) , its IC50 was > 15 µM

// sample CC[C@H](C)[C@H](NC(=O)[C@H](CCC(N)=O)NC(=O)[C@H](Cc1c[nH]cn1)NC(=O)[C@H](C)NC(=O)[C@H](CC(N)=O)NC(=O)[C@@H](NC(=O)[C@@H](N)[C@@H](C)O)C(C)C)C(=O)N[C@@H](CC(C)C)C(=O)N1CCC[C@H]1C(=O)N[C@@H](CCCCN)C(=O)O [Epitope P17] (H-TVNAHQILPK-OH; N-terminus and C-terminus assumed) , its IC50 was < 5 µM
